measurement_description: Cmax in jugular vein cannulated Sprague-Dawley rat at 30 mg/kg, po measured up to 140 mins
Format: ADME, organism-based
Design: dose 30 mg/kg, route oral
condition: jugular vein blood
measure_name: Cmax (ng/mL)
Hi! Could you send only the number? It should be in ng/mL, unit omitted.

CC/C=C\C/C=C\C/C=C\C/C=C\C/C=C\CCCC(=O)N(C)CCNC(=O)c1cccnc1    400
CC/C=C\C/C=C\C/C=C\C/C=C\C/C=C\CCCC(=O)N1CCC(NC(=O)c2cccnc2)C1 (single isomer, unassigned)    564

Query molecule follows.
For CC/C=C\C/C=C\C/C=C\C/C=C\C/C=C\CCCC(=O)NCCNC(=O)c1cccnc1 , what is its reported Cmax? 35
